target: Hemagglutinin of influenza A/Solomon Islands/3/06 (H1N1) on whole virions (Influenza A virus A/Solomon …); test: cell-based or functional assay
METRIC NAME: % Neutralization (%)
// return numeric value only (unit: %, not printed)

Would you please look over these solved cases?
| BINDER | % Neutralization (%) |
| --- | --- |
| TCN-537 (3194_D21) (antibody, V domains shown) VH: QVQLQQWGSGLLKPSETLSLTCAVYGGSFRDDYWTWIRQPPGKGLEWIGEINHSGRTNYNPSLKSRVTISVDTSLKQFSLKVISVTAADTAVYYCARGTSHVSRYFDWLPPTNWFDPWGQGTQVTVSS VL: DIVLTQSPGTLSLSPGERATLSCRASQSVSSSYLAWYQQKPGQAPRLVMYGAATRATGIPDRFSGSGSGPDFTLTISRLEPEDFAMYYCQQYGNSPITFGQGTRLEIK | 89 |
| TCN-535 (5246_P19) (antibody, V domains shown) VH: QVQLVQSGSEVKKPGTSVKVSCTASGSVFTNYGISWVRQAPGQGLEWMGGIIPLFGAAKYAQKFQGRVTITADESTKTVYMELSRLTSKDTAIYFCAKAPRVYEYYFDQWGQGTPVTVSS VL: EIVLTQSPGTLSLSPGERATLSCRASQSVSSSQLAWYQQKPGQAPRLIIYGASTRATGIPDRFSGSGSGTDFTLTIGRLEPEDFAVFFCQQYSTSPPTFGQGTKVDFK | 82 |
| TCN-546 (5089_L08) (antibody, V domains shown) VH: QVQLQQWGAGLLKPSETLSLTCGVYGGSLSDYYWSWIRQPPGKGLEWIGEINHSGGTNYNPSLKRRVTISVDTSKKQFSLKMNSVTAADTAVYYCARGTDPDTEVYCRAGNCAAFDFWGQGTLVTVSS VL: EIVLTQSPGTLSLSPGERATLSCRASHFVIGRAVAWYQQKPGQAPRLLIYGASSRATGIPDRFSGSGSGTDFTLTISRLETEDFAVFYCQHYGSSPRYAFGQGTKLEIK | 0 |
| TCN-552 (5249_I23) (antibody, V domains shown) VH: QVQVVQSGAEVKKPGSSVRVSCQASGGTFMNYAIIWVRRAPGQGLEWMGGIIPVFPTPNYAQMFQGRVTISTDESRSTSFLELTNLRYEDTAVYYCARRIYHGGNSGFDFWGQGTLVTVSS VL: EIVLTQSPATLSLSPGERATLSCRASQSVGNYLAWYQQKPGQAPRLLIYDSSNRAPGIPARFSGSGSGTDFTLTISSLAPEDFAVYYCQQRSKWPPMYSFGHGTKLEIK | 57 |
| TCN-544 (5082_A19) (antibody, V domains shown) VH: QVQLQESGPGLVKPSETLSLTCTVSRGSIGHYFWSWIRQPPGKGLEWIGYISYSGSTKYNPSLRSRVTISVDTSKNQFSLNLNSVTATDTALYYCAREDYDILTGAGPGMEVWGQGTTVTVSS VL: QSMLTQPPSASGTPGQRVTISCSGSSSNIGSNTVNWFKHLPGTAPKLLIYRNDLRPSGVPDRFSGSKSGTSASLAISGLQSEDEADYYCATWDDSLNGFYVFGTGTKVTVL | 95 |

Problem: Assign % Neutralization to the following record: TCN-538 (3206_O17) (antibody, V domains shown) VH: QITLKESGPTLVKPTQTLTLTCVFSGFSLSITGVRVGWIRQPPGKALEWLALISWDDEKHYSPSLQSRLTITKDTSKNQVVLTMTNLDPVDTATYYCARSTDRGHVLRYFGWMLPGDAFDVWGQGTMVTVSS VL: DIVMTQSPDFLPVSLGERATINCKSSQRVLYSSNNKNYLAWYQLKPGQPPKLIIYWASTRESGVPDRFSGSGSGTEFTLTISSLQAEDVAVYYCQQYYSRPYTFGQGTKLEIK
Solution: 35

Problem: Assign % Neutralization to the following record: TCN-526 (5084_C17) (antibody, V domains shown) VH: EVLMVESGGGLVQPGGSVRLSCVASGFSFSSHWMTWVRQAPGKGLEWVANIEDDGGDKYYVDSVKGRFIISRDNAKNSVYLQMNSLRAEDTAVYFCARGSGSSDRSDYDPHYYYYLDVWGKGATVTVSS VL: DIQLTQSPSSLSASVGDRVTITCRASQSISRYLNWYQQKPGKAPKLLLFAASTLLDGVPSRFSGSGSGTDFTLTISSLQPEDFATYYCQRNHSPSWTFGQGTRVEIK
Solution: 0

Problem: Assign % Neutralization to the following record: TCN-551 (5243_D01) (antibody, V domains shown) VH: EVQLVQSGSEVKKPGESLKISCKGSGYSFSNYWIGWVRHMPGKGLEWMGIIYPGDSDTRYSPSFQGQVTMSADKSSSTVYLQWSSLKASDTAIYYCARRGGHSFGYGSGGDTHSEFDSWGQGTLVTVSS VL: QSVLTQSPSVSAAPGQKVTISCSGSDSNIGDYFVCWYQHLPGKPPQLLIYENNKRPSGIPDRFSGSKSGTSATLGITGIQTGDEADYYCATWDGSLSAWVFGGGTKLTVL
Solution: 100

Problem: Assign % Neutralization to the following record: TCN-543 (5081_G23) (antibody, V domains shown) VH: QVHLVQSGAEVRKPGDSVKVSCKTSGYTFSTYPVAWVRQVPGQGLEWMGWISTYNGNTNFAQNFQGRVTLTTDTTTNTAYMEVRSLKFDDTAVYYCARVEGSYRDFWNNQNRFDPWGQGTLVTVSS VL: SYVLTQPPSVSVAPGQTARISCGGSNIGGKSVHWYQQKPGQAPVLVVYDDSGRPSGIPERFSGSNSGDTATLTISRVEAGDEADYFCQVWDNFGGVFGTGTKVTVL
Solution: 100

Problem: Assign % Neutralization to the following record: TCN-542 (5079_A16) (antibody, V domains shown) VH: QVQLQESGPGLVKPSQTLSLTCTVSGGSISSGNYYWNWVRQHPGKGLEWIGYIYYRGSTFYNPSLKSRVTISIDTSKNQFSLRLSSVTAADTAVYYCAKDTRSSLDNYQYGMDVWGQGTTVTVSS VL: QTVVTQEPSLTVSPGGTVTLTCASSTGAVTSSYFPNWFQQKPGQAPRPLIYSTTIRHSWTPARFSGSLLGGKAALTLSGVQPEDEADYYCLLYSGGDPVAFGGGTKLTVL
Solution: 98
